Numbers sourced from ChEMBL document CHEMBL2073767.

# TARGET UNDER TEST: Solute carrier family 22 member 4 (Homo sapiens, UniProt Q9H015)
# Sequence (Q9H015 whole entry): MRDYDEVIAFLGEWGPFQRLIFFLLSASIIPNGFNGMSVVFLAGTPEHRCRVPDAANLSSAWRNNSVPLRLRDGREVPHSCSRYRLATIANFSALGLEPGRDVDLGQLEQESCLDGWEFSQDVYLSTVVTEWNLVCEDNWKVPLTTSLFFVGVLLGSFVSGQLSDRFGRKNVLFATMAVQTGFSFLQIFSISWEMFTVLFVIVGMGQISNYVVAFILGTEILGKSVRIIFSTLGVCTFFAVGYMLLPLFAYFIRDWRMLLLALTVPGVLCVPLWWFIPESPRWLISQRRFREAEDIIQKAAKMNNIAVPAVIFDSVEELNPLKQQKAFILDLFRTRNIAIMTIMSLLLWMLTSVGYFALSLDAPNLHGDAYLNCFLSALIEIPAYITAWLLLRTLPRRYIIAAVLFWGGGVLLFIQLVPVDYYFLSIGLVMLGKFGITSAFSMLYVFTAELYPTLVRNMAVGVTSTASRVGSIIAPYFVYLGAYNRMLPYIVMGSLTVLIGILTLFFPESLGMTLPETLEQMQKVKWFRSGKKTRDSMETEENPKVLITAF
# TEST PROTOCOL: in vitro
# COND: xenopus laevis, Xenopus laevis oocytes, probe TEA
# Description: TP_TRANSPORTER: inhibition of TEA uptake (TEA: 60 uM, Nicotine: 1000 uM) in Xenopus laevis oocytes
MEASURE: activity at 1000 µM (%)
Write the answer as a number in %, unit excluded.

stdin: Input CN1CCC[C@H]1c1cccnc1 [NICOTINE] , output reported activity at 1000 µM.
stdout: 71.6

* * *

# TARGET UNDER TEST: Solute carrier family 22 member 4 (Homo sapiens, UniProt Q9H015)
# Sequence (Q9H015 whole entry): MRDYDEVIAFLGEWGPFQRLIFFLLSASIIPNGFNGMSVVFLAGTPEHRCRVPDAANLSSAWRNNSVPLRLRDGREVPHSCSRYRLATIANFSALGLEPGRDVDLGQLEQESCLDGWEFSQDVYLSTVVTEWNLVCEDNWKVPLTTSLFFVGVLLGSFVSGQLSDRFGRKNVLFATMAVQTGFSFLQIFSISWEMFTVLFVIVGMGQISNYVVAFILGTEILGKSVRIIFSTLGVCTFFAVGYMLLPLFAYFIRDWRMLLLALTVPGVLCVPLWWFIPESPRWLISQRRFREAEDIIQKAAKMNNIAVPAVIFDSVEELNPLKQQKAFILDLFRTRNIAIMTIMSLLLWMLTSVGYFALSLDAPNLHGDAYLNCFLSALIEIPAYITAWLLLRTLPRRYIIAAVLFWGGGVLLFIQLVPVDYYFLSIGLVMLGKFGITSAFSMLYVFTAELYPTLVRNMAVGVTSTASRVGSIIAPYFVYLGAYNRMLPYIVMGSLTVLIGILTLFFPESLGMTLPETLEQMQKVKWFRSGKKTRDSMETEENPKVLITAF
# TEST PROTOCOL: TP_TRANSPORTER: inhibition of TEA uptake (TEA: 60 uM, CER: 1000 uM) in Xenopus laevis oocytes
# Format: functional, cell-based, Oocyte
# Design: scale not given: the % may be the effect or the level left
# COND: probe TEA, read-out: Activity
MEASURE: activity at 1000 µM
Give me the value, and tack the unit on after it.

stdin: Read off the recorded activity at 1000 µM for O=C(Cc1cccs1)N[C@@H]1C(=O)N2C(C(=O)[O-])=C(C[n+]3ccccc3)CS[C@H]12 [CEPHALORIDINE]
stdout: 35.7%
